Data provenance is paper PMC6985109.

- Test system: Candida albicans 4324
- Protocol notes: Broth microdilution antifungal susceptibility (MIC/MFC)
- Format: cell-based
- Condition context: strain 4324, FLC resistant, 37 °C, 24 h
MIC for assorted molecules
Result type: MIC

* C=CCc1ccc(O)c(OC)c1 [EUG, 2-methoxy-4-(prop-2-en-1-yl)phenol, reference compound] | 500 µg/mL
* OC(Cn1cncn1)(Cn1cncn1)c1ccc(F)cc1F [FLC, fluconazole, reference compound] | 16 µg/mL
* C=CCc1ccc(OS(=O)(=O)c2ccc(C(=O)O)cc2)c(OC)c1 | 4 µg/mL
* C=CCc1ccc(OS(=O)(=O)c2ccccc2)c(OC)c1 | 128 µg/mL

====

- System: Candida albicans 4563
- Protocol notes: Broth microdilution antifungal susceptibility (MIC/MFC)
- Type: cell-based
- Condition context: strain 4563, FLC susceptible, 37 °C, 24 h
Items are presented alongside their recorded MIC.
Result type: MIC

* C=CCc1ccc(O)c(OC)c1 [EUG, 2-methoxy-4-(prop-2-en-1-yl)phenol, reference compound] | 500 µg/mL
* OC(Cn1cncn1)(Cn1cncn1)c1ccc(F)cc1F [FLC, fluconazole, reference compound] | 0.25 µg/mL
* C=CCc1ccc(OS(=O)(=O)c2ccccc2)c(OC)c1 [ETC-2] | 256 µg/mL
* C=CCc1ccc(OS(=O)(=O)c2ccc(C(=O)O)cc2)c(OC)c1 [ETC-7] | 1 µg/mL

====

Recorded MIC values (Candida albicans SC5314) are given below.
Result type: MIC (µg/mL)

* OC(Cn1cncn1)(Cn1cncn1)c1ccc(F)cc1F [FLC, fluconazole, reference compound] | 0.25
* C=CCc1ccc(OS(=O)(=O)c2ccc(C(=O)O)cc2)c(OC)c1 | 1
* C=CCc1ccc(OS(=O)(=O)c2ccccc2)c(OC)c1 | 32
* C=CCc1ccc(O)c(OC)c1 [EUG, 2-methoxy-4-(prop-2-en-1-yl)phenol, reference compound] | 500
